Data credit: patent US7709478B2

system: eNOS promoter; assay: Activation of eNOS transcription (eNOS promoter-luciferase reporter gene assay); format: cell-based, human; settings: EC50 of transcription induction ratio vs compound concentration, determined graphically; human endothelial cell line stably transfected with eNOS promoter-luciferase construct; 18 h incubation
Collected EC50 values appear next to each entry.

COMPOUND: Cc1nc(C2CC2)sc1C(=O)N[C@H]1CCCc2ccccc2C1
UNIT_LABEL: nM
QUALIFIER_SYMBOL: =
EC50: 41

COMPOUND: COc1ccc(C(=O)NC2CCCc3ccccc3C2)cn1 (stereo not shown)
UNIT_LABEL: nM
QUALIFIER_SYMBOL: =
EC50: 83

COMPOUND: O=C(NC1CCCc2ccccc2C1)c1ccc(Cl)nc1 (stereo not shown)
UNIT_LABEL: nM
QUALIFIER_SYMBOL: =
EC50: 256

COMPOUND: Cc1nc2ccc(C(=O)N[C@H]3CCCc4ccccc4C3)cc2[nH]1
UNIT_LABEL: nM
QUALIFIER_SYMBOL: =
EC50: 75

COMPOUND: N#Cc1ccc(C(=O)NC2CCCc3ccccc3C2)cn1 (stereo not shown)
UNIT_LABEL: nM
QUALIFIER_SYMBOL: =
EC50: 8200

COMPOUND: Cc1c(NS(C)(=O)=O)cccc1C(=O)NC1CCCc2ccccc2C1 (stereo not shown)
UNIT_LABEL: nM
QUALIFIER_SYMBOL: =
EC50: 2800

COMPOUND: O=C(NC1CCCc2ccccc2C1)c1ccc(F)cc1F (stereo not shown)
UNIT_LABEL: nM
QUALIFIER_SYMBOL: <
EC50: 80

COMPOUND: Cc1nc(C(F)(F)F)ccc1C(=O)NC1CCCc2ccccc2C1 (single isomer, unassigned)
UNIT_LABEL: nM
QUALIFIER_SYMBOL: =
EC50: 496

COMPOUND: CN(C)c1ccc(C(=O)NC2CCCc3ccccc3C2)cn1 (stereo not shown)
UNIT_LABEL: nM
QUALIFIER_SYMBOL: =
EC50: 53

COMPOUND: CNc1cc(C(=O)NC2CCCc3ccccc3C2)ccc1C (stereo not shown)
UNIT_LABEL: nM
QUALIFIER_SYMBOL: =
EC50: 589

COMPOUND: O=C(NC1CCCc2ccccc2C1)c1cnn(-c2ccc(Cl)cc2)c1C(F)(F)F (stereo not shown)
UNIT_LABEL: nM
QUALIFIER_SYMBOL: =
EC50: 1200

COMPOUND: O=C(NC1CCCc2ccccc2C1)c1ccc(F)cc1Cl (stereo not shown)
UNIT_LABEL: nM
QUALIFIER_SYMBOL: <
EC50: 80

COMPOUND: Cc1c(C(=O)NC2CCCc3ccccc3C2)cnn1-c1ccccc1 (single isomer, unassigned) [Compound 31]
UNIT_LABEL: nM
QUALIFIER_SYMBOL: =
EC50: 5000

COMPOUND: Cc1nc(N)c(C(=O)NC2CCCc3ccccc3C2)nc1C (stereo not shown)
UNIT_LABEL: nM
QUALIFIER_SYMBOL: =
EC50: 71

COMPOUND: Nc1cccnc1C(=O)NC1CCCc2ccccc2C1 (stereo not shown)
UNIT_LABEL: nM
QUALIFIER_SYMBOL: =
EC50: 10

COMPOUND: Cc1nc(C)c(C(=O)NC2CCCc3ccccc3C2)s1 (single isomer, unassigned) [Compound 29]
UNIT_LABEL: nM
QUALIFIER_SYMBOL: =
EC50: 9600

COMPOUND: O=C(N[C@H]1CCCc2ccccc2C1)c1ccc(N2CCCC2)nc1
UNIT_LABEL: nM
QUALIFIER_SYMBOL: =
EC50: 140

COMPOUND: Cc1cc(C)c(C(=O)NC2CCCc3ccccc3C2)cn1 (single isomer, unassigned)
UNIT_LABEL: nM
QUALIFIER_SYMBOL: =
EC50: 1000

COMPOUND: O=C(NC1CCCc2ccccc2C1)c1ccc2[nH]nnc2c1 (stereo not shown)
UNIT_LABEL: nM
QUALIFIER_SYMBOL: =
EC50: 8800

COMPOUND: Cc1ccc(C(=O)NC2CCCc3ccccc3C2)c(O)n1 (stereo not shown)
UNIT_LABEL: nM
QUALIFIER_SYMBOL: =
EC50: 2100

COMPOUND: Cc1cc(C)c(C(=O)NC2CCCc3ccccc3C2)c(N)n1 (stereo not shown)
UNIT_LABEL: nM
QUALIFIER_SYMBOL: =
EC50: 168

COMPOUND: CN(C)c1ccc(C(=O)N[C@H]2CCCc3ccccc3C2)cn1
UNIT_LABEL: nM
QUALIFIER_SYMBOL: =
EC50: 136

COMPOUND: Nc1c(C(=O)NC2CCCc3ccccc3C2)cnn1-c1ccccc1 (stereo not shown)
UNIT_LABEL: nM
QUALIFIER_SYMBOL: =
EC50: 2300

COMPOUND: O=C(NC1CCCc2ccccc2C1)c1ccc(C(F)(F)F)nc1 (single isomer, unassigned)
UNIT_LABEL: nM
QUALIFIER_SYMBOL: =
EC50: 283

COMPOUND: Cc1ccc(C(=O)NC2CCCc3ccccc3C2)cn1 (single isomer, unassigned)
UNIT_LABEL: nM
QUALIFIER_SYMBOL: =
EC50: 42

COMPOUND: CCSc1ncc(C(=O)NC2CCCc3ccccc3C2)c(N)n1 (stereo not shown)
UNIT_LABEL: nM
QUALIFIER_SYMBOL: =
EC50: 34000

COMPOUND: Cc1ncsc1C(=O)NC1CCCc2ccccc2C1 (stereo not shown)
UNIT_LABEL: nM
QUALIFIER_SYMBOL: =
EC50: 1800

COMPOUND: O=C(NC1CCCc2ccccc2C1)c1cnc(N2CCOCC2)nc1 (stereo not shown)
UNIT_LABEL: nM
QUALIFIER_SYMBOL: =
EC50: 16000

COMPOUND: CS(=O)(=O)Nc1cccc(C(=O)NC2CCCc3ccccc3C2)c1 (stereo not shown)
UNIT_LABEL: nM
QUALIFIER_SYMBOL: =
EC50: 1000

COMPOUND: O=C(NC1CCCc2ccccc2C1)c1cccc(N2CCCCC2)c1 (stereo not shown)
UNIT_LABEL: nM
QUALIFIER_SYMBOL: =
EC50: 4800

COMPOUND: O=C(NC1CCCc2ccccc2C1)c1ccc2cc[nH]c2c1 (stereo not shown)
UNIT_LABEL: nM
QUALIFIER_SYMBOL: =
EC50: 16

COMPOUND: O=C(NC1CCCc2ccccc2C1)c1cccc(N2CCOCC2)c1 (stereo not shown)
UNIT_LABEL: nM
QUALIFIER_SYMBOL: =
EC50: 14000

COMPOUND: Cc1cc(C(=O)NC2CCCc3ccccc3C2)c(C)n1Cc1ccncc1 (single isomer, unassigned; (-)) [Compound 48]
UNIT_LABEL: nM
QUALIFIER_SYMBOL: =
EC50: 590

COMPOUND: COc1ccc(C(=O)N[C@H]2CCCc3ccccc3C2)cn1
UNIT_LABEL: nM
QUALIFIER_SYMBOL: =
EC50: 110

COMPOUND: O=C(NC1CCCc2ccccc2C1)c1ccc(F)cc1 (single isomer, unassigned; (-)) [Compound 1a]
UNIT_LABEL: nM
QUALIFIER_SYMBOL: =
EC50: 1

COMPOUND: O=C(NC1CCCc2ccccc2C1)c1ccc(F)cc1 (stereo not shown) [Compound 1]
UNIT_LABEL: nM
QUALIFIER_SYMBOL: =
EC50: 20

COMPOUND: Cc1nc(C)c(C(=O)NC2CCCc3ccccc3C2)o1 (stereo not shown)
UNIT_LABEL: nM
QUALIFIER_SYMBOL: =
EC50: 19000

###

test system: eNOS promoter; assay: Activation of eNOS transcription (eNOS promoter-luciferase reporter gene assay); type: cell-based, human; details: EC50 of transcription induction ratio vs compound concentration, determined graphically; human endothelial cell line stably transfected with eNOS promoter-luciferase construct; 18 h incubation

COMPOUND: O=C(NC1CCCc2ccccc2C1)c1cc(NCc2ccccc2)ccn1 (stereo not shown)
EC50: 3000 nM

COMPOUND: O=C(NC1CCCc2ccccc2C1)c1cnc2c(c1)CCCC2 (stereo not shown)
EC50: 3000 nM

COMPOUND: O=C(NC1CCCc2ccccc2C1)c1ccnc(N2CCCC2)c1 (single isomer, unassigned; (+))
EC50: 3400 nM

COMPOUND: Cc1c(C(=O)NC2CCCc3ccccc3C2)cnn1-c1ccccc1 (stereo not shown) [Compound 30]
EC50: 20 nM

COMPOUND: O=C(NC1CCCc2ccccc2C1)c1ccc(Cl)nc1Cl (stereo not shown)
EC50: 2000 nM

COMPOUND: O=C(NC1CCCc2ccccc2C1)c1cccc2[nH]ccc12 (stereo not shown)
EC50: 136 nM

COMPOUND: CNc1cncc(C(=O)NC2CCCc3ccccc3C2)n1 (stereo not shown)
EC50: 572 nM

COMPOUND: Cc1cnc(C(=O)NC2CCCc3ccccc3C2)cn1 (single isomer, unassigned) [Compound 33]
EC50: 3300 nM

COMPOUND: O=C(N[C@H]1CCCc2ccccc2C1)c1ccc2nc[nH]c2c1
EC50: 351 nM

COMPOUND: Cc1ccc(C(=O)N[C@H]2CCCc3ccccc3C2)cc1NS(C)(=O)=O
EC50: 230 nM

COMPOUND: CCOc1ccc(C(=O)NC2CCCc3ccccc3C2)cc1 (stereo not shown)
EC50: < 80 nM

COMPOUND: Cc1cc(C(=O)NC2CCCc3ccccc3C2)c(C)n1Cc1ccncc1 (single isomer, unassigned; (+)) [Compound 47]
EC50: 20 nM

COMPOUND: CS(=O)(=O)Nc1cccnc1C(=O)NC1CCCc2ccccc2C1 (stereo not shown)
EC50: 3800 nM

COMPOUND: Nc1ccnc(C(=O)NC2CCCc3ccccc3C2)c1 (stereo not shown)
EC50: 2400 nM

COMPOUND: Cc1nc(N(C)C)sc1C(=O)N[C@H]1CCCc2ccccc2C1
EC50: 100 nM

COMPOUND: COc1ccc(C(=O)NC2CCCc3ccccc3C2)c(OC)n1 (stereo not shown)
EC50: 779 nM

COMPOUND: O=C(N[C@H]1CCCc2ccccc2C1)c1cccc(N2CCCC2)c1
EC50: 50 nM

COMPOUND: CS(=O)(=O)Nc1cc(C(=O)NC2CCCc3ccccc3C2)ccc1Cl (stereo not shown)
EC50: 574 nM

COMPOUND: O=C(NC1CCCc2ccccc2C1O)c1ccc(F)cc1 (stereo not shown)
EC50: 6000 nM
